Assignment: determine reported growth inhibition for the given molecules.
experiment_notes: NCI Yeast Anticancer Drug Screen. Data for the mlh1 rad18 strain (AID 175)
conditions_used: S. cerevisiae mlh1 rad18 strain growth inhibition; at 50.0 µM; hits give high values
About 79,000 compounds went through this panel and 15% of them were active in at least one assay; those are over-represented in the sample as a whole. Where a SMILES comes first, the peptide text is derived from it. [ ]: non-standard residue; d: D form. The star is where a group is joined. ξ: configuration not given here. X14 = COC1=CC(=O)N(C(=O)C(O*)C(C)C)C1Cc1ccccc1; ξNMe2Val = CC(C)C(C(=O)*)N(C)C; NMeV = CN[CH](C(=O)O)C(C)C
Give bare numbers, in %.

Study these solved cases before continuing.
Please give the documented growth inhibition of C=C1CCN2CC[C@@H](OC(=O)/C(C)=C\C)[C@@H]12
-22.1

Please give the documented growth inhibition of ClCCN(CCCl)c1cc(Cl)ccc1Oc1ccccc1
-1.55

Dear colleague, could you please provide growth inhibition for the molecules listed below?
1. C[C@]12CC[C@H]3[C@@H](CC[C@]4(O)C[C@@H](O)CC[C@]34CO)[C@@]1(O)CC[C@@H]2C1=CC(=O)OC1
2. COC1=CC(=O)N(C(=O)C(OC(=O)C2CCCN2C(=O)C2CCCN2C(=O)C(C(C)C)N(C)C(=O)C(NC(=O)C(C(C)C)N(C)C)C(C)C)C(C)C)C1Cc1ccccc1 (centres undefined) (ξNMe2Val-V[NMeV]PP-X14; configuration not given here)

1: -16.9; 2: -32.6
